Origin of measurements: the supplement of paper PMC11208160

assay: recombinant UMI read abundance after kanamycin selection (control-corrected) (log10(CPM+1)); higher = more efficient recombination; extreme values may be limits of the assay; sequences stand for … in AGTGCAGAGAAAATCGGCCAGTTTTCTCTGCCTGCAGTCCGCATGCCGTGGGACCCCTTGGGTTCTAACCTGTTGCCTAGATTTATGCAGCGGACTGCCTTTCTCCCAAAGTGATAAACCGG…AGGTTGGTTTCACT; site = the 11-nt donor;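 further: IS621 bridge recombinase in Escherichia coli cells against a fixed T5 target plasmid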
Catalogue of recombinant UMI read abundance (log10) readings, one per entry.
measuredMetric: recombinant UMI read abundance (log10)

>>> measuredvalue("ACCTTCTCATGGACCGGTTTTCCCGGTAATCCGTATTTGGG (site ACCTTCTCTCC)")
0.00668
>>> measuredvalue("TAGCATTCATGGACCGGTTTTCCCGGTAATCCGTATTTGGT (site TAGCTTTCTAC)")
0
>>> measuredvalue("GAGCTCACATGGACCGGTTTTCCCGGTAATCCGTATTTGAT (site GAGCTAACTAT)")
0
>>> measuredvalue("AATGTAACATGGACCGGTTTTCCCGGTAATCCGTATTTGCA (site AATGTAACTTG)")
1.78
>>> measuredvalue("GAATGGCCATGGACCGGTTTTCCCGGTAATCCGTATTTGCC (site GAATGGCCTGG)")
0
>>> measuredvalue("CGGAATCCATGGACCGGTTTTCCCGGTAATCCGTATTTGAT (site CGGAATCCTAC)")
0.0207
>>> measuredvalue("GTATGTACATGGACCGGTTTTCCCGGTAATCCGTATTTGAC (site GTATGTACTGT)")
2.9
>>> measuredvalue("GTTGTTCCATGGACCGGTTTTCCCGGTAATCCGTATTTGGT (site GTTGTGCCTAC)")
0.03
>>> measuredvalue("TGGCCGGCATGGACCGGTTTTCCCGGTAATCCGTATTTGGG (site TGGCCGGCTCC)")
0.059
